Test system: CASKI
Test: Primary qHTS to identify gynecologic anti-cancer compounds using libraries of approved drugs and bioactive compounds (AID 1345084); also: % is scaled to controls: 0 for no effect and ±100 for the full control effect; nearly all actives have a fitted effect of over 55% in size
Conditions: Gynecologic cancer cell panel viability, ATPlite luminescence, 48 h; series mostly up to 57.5 µM
Records with an inconclusive call do not appear. Active and inactive are the calls of the source. Calls follow the shape of the dose curve; as a rule, active = well fitted cell-killing curve with a large enough effect; inconclusive = small, poorly fitted or top-dose-only effect, or effect the other way; inactive = flat fitted curve, though single readings scatter.
Entries and their measured activity change, negative = cytotoxicity follow.

1) C/C=C(\C)C(=O)O[C@@H]1CC2[C@@H](CC=C3C[C@@H](O[C@H]4C[C@H](OC)[C@H](O[C@H]5C[C@H](OC)[C@H](O[C@@H]6O[C@H](C)[C@@H](O[C@H]7C[C@H](OC)[C@H](O[C@@H]8O[C@H](CO)[C@@H](O)[C@H](O)[C@H]8O)[C@@H](C)O7)[C@H](OC)[C@H]6O)[C@@H](C)O5)[C@@H](C)O4)CC[C@@]32C)[C@@]2(O)CC[C@H](C(C)=O)[C@@]12C (some centres not stated) = 2.06% [at 6.55 µM] (inactive)

Okay, now this compound:
Q: Give recorded activity change, negative = cytotoxicity. CC(=O)N[C@H]1[C@H](O[C@H]2CC[C@@]3(C)C(CC[C@]4(C)C3CC=C3[C@@H]5CC(C)(C)CC[C@]5(C(=O)OC5OCC(O)C(O)C5O)CC[C@]34C)C2(C)C)O[C@H](COC2OC(C)C(O)C(OC3OC(C)C(O)C(O)C3O)C2O)[C@@H](O)[C@@H]1O (some centres not stated)
Result: 5.69% [at 11.6 µM] (inactive)

Source: PubChem BioAssay (NCATS)
